Values compiled from patent US11472838B2.

- tgt: TG2 (Homo sapiens (Human), UniProt P21980)
- Sequence (P21980 whole entry): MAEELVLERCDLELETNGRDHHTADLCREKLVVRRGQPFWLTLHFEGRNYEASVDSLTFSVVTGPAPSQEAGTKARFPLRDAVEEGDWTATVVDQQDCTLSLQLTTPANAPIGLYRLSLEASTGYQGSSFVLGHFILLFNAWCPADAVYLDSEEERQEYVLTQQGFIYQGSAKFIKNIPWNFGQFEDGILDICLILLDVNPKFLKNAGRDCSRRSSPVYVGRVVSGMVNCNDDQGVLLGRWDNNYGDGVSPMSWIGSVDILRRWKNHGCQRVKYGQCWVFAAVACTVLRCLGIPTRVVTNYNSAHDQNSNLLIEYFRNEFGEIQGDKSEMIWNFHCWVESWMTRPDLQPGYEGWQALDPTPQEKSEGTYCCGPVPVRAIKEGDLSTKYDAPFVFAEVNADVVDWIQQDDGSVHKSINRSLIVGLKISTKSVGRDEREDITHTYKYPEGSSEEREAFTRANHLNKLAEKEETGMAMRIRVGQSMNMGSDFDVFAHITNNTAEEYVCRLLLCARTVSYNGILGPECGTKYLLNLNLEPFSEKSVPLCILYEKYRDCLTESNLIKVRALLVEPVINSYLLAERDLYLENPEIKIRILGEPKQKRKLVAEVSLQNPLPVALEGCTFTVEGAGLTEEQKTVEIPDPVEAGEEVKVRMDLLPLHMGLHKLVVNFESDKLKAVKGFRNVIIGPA
- run-description: Inhibitory activity against TG2 (isopeptidase assay), Tables 3 and 4
- Format: biochemical
- test-settings: TG2 versus FXIII, Table 4
*1 amine or outer side, *2 acyl side, *3 side chain or, on linkers, in order; H or OH if unused. Where a SMILES comes first, the peptide text is derived from it. [ ]: non-standard residue; d: D form. The star is where a group is joined. ξ: configuration not given here. Benzoyl(3-COOH,5-NO2) = O=C(O)c1cc(C(=O)*)cc([N+](=O)[O-])c1; X1 = COC(=O)/C=C/CC[C@H](N[*:1])C(=O)[*:2]; Pro(4-methylene) = C=C1CN[C@H](C(=O)O)C1; Pro(4-oxo) = O=C1CN[C@H](C(=O)O)C1; Ile(3ξ) = CCC(C)[C@H](N)C(=O)O; Thr(3ξ) = CC(O)[C@H](N)C(=O)O; Tle = CC(C)(C)[C@H](N)C(=O)O; Nle = CCCC[C@H](N)C(=O)O
For each entry below, report its Selectivity value.

CCCC[C@H](NC(=O)[C@H](CC/C=C/C(=O)OC)NC(=O)[C@@H]1CC(=O)CN1)C(=O)N[C@H](C(=O)N[C@@H](CC(C)C)C(=O)N1CCC[C@H]1C(=O)N[C@@H](Cc1c[nH]c2ccccc12)C(=O)O)C(C)CC (stereo partly drawn) [Ref. 15, reference compound] (H-[Pro(4-oxo)][X1][Nle][Ile(3ξ)]LPW-OH) : 0.52
COC(=O)/C=C/CC[C@H](NC(=O)[C@H](CC(N)=O)NC(C)=O)C(=O)N[C@@H](CCC(=O)O)C(=O)N[C@@H](CCC(N)=O)C(=O)N[C@H](C(=O)N[C@@H](CO)C(=O)N1CCC[C@H]1C(=O)N[C@@H](CC(C)C)C(=O)N[C@H](C(=O)N[C@@H](CC(C)C)C(=O)N[C@@H](CC(C)C)C(=O)O)C(C)O)C(C)C (stereo partly drawn) [Ref. 18, reference compound] (Ac-N[X1]EQVSPL[Thr(3ξ)]LL-OH) : 0.34

Switching to the query record.
Given the molecule C=C1C[C@@H](C(=O)N[C@@H](CC(C)C)C(=O)N2CCC[C@H]2C(=O)O)N(C(=O)[C@@H](NC(=O)[C@H](CC/C=C/C(=O)OC)NC(=O)c2cc(C(=O)O)cc([N+](=O)[O-])c2)C(C)(C)C)C1 [Compound 43] ({Benzoyl(3-COOH,5-NO2)}-[X1][Tle][Pro(4-methylene)]LP-OH) , what is its reported Selectivity? 5.42

---

- tgt: FXIII (Homo sapiens (Human))
- Sequence (P00488 39-732): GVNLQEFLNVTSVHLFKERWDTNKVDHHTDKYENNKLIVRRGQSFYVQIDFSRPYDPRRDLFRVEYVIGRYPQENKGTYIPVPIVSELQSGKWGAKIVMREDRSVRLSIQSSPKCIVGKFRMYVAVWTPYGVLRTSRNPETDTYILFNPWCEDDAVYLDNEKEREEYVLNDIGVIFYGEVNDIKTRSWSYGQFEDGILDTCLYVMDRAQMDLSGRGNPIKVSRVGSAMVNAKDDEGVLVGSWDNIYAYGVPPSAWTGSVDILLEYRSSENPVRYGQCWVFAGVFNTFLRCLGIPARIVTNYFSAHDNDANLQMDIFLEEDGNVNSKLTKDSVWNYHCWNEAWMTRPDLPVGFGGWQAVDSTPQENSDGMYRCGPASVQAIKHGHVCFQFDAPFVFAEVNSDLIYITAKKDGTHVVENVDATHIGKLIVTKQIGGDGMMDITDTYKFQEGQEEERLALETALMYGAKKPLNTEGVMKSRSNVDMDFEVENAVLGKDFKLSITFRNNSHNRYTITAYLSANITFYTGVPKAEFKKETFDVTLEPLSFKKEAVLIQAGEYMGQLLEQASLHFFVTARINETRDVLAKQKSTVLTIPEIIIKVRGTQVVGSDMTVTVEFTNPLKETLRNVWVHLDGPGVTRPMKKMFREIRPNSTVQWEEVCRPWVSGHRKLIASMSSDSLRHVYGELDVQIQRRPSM
- run-description: Inhibitory activity against FXIII (isopeptidase assay), Tables 3 and 4;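 also: FXIIIa activity read with a peptide substrate derived from the α2-antiplasmin N-terminal dodecapeptide, FXIII activated beforehand at room temperature, inhibitor-free wells with DMSO buffer as control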
- Type: biochemical
- test-settings: Table 4; read-out: FXIII IC50
*1 amine or outer side, *2 acyl side, *3 side chain or, on linkers, in order; H or OH if unused. Where a SMILES comes first, the peptide text is derived from it. [ ]: non-standard residue; d: D form. The star is where a group is joined. Benzoyl(3-COOH,5-NO2) = O=C(O)c1cc(C(=O)*)cc([N+](=O)[O-])c1; Nle(5E-ene,6-CO2Et) = CCOC(=O)/C=C/CC[C@H](N)C(=O)O; X1 = COC(=O)/C=C/CC[C@H](N[*:1])C(=O)[*:2]; Pro(4-methylene) = C=C1CN[C@H](C(=O)O)C1; Chg = N[C@H](C(=O)O)C1CCCCC1; Tle = CC(C)(C)[C@H](N)C(=O)O; Nle = CCCC[C@H](N)C(=O)O; NHIsopentyl = CC(C)CCN*; Cbz = O=C(OCc1ccccc1)*
For each entry below, report its pIC50 value.
Numbers only, as −log10 of the molar value.

For orientation, consider the following solved cases.
CCOC(=O)/C=C/CC[C@H](NC(=O)OCc1ccccc1)C(=O)N[C@H](C(=O)N1CCC[C@H]1C(=O)N[C@H](C(=O)NCCC(C)C)C1CCCCC1)C(C)C [Ref. 10, reference compound] (Cbz-[Nle(5E-ene,6-CO2Et)]VP[Chg]-NHIsopentyl) : 5.09
CCCC[C@H](NC(=O)[C@H](CC/C=C/C(=O)OC)NC(=O)[C@@H](CC(=O)O)NC(C)=O)C(=O)N[C@@H](CCCC)C(=O)N[C@@H](CC(C)C)C(=O)N1CCC[C@H]1C(=O)N[C@@H](Cc1c[nH]c2ccccc12)C(=O)N1CCC[C@H]1C(=O)O [Ref. 22, reference compound] (Ac-[dD][X1][Nle][Nle]LPWP-OH) : 6.96
C=C1C[C@@H](C(=O)N[C@@H](CC(C)C)C(=O)N2CCC[C@H]2C(=O)O)N(C(=O)[C@@H](NC(=O)[C@H](CC/C=C/C(=O)OC)NC(=O)c2cc(C(=O)O)cc([N+](=O)[O-])c2)C(C)(C)C)C1 [Compound 43] ({Benzoyl(3-COOH,5-NO2)}-[X1][Tle][Pro(4-methylene)]LP-OH) : 6.80

Given the molecule CCOC(=O)/C=C/CC[C@H](NC(=O)OCc1ccccc1)C(=O)N[C@@H](CCC(N)=O)C(=O)N1CCC[C@H]1C(=O)N[C@@H](CC(C)C)C(=O)N[C@H](C(N)=O)C1CCCCC1 [Ref. 09, reference compound] (Cbz-[Nle(5E-ene,6-CO2Et)]QPL[Chg]-NH2) , what is its reported pIC50? 5.24
